Assay: RAM signaling pathway blockade in yeast – S. cerevisiae, Pdr1DBD-CYC8 efflux-inhibited sensitized strain, primary screen (AID 1298);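 note: 0% = DMSO untreated cells without growth and 100% = 10 µM 1-NA-PP1 full growth; higher means more yeast growth rescued from 5-FOA killing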
Condition Context: S. cerevisiae cbk1-as DSE1-URA3 strain, 5-FOA growth OD615, 2 d; at 50 µM; stronger effect = higher value
Measured Attribute: RAM network inhibition (%)
State the answer as a number, implicitly in %.

Before answering, review these 3 worked examples.
Cc1cccc(Cn2c(SCCN3CCCCC3)nc3c2c(=O)[nH]c(=O)n3C)c1; 0.26
Cc1ccc(CCP(=O)(O)CN2CCOCC2)cn1; -0.42
O=C(NC(=O)c1cccc(F)c1)OC[C@@H]1CCCN2CCCC[C@H]12; 9.99

Record CC(C)c1nnc(NC(=O)c2ccc(N3C(=O)CCC3=O)cc2)s1 . Reported RAM network inhibition: 3.77

Field RAM network inhibition (entry Cn1c(=O)oc2cc(S(=O)(=O)N3CCCC(C(=O)NCC4COc5ccccc5O4)C3)ccc21 (stereo unspecified) ) reads 4.73

Form field RAM network inhibition, entry Cc1cc2nc(SCCN3CCCC3)[nH]c2cc1C : -0.81

[O-]/[N+](=C\c1ccc(OC(F)F)cc1)c1ccccc1 has a reported RAM network inhibition of 1.08

====

Assay: RAM signaling pathway blockade in yeast – S. cerevisiae, Pdr1DBD-CYC8 efflux-inhibited sensitized strain, primary screen (AID 1298);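 note: 0% = DMSO untreated cells without growth and 100% = 10 µM 1-NA-PP1 full growth; higher means more yeast growth rescued from 5-FOA killing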
Condition Context: S. cerevisiae cbk1-as DSE1-URA3 strain, 5-FOA growth OD615, 2 d; at 50 µM; stronger effect = higher value
Activity calls are given as the source filed them.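 How the source made its calls: active means RAM network inhibition above 8.4% in each of two replicates, 3 SD over the compound average; inconclusive means above 8.4% inhibition in only one replicate; inactive means 8.4% inhibition or less in each replicate.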
Entries and their measured RAM network inhibition follow.

Input Cc1ccccc1N1C(=O)c2sc3nc4c(c(=O)n3c2C1=O)CCC4 . Output RAM network inhibition: 2.56% (inactive)

Form field RAM network inhibition, entry CCOC(=O)CN1Cc2cccc(C(=O)O)c2C1=O : 1.31% (inactive)

// RAM network inhibition lookup, compound = CCOC(=O)Nc1ccc(S(=O)(=O)Nn2cnnc2)cc1 , result: 3.94% (inactive)

====

Assay: MRP1 drug-resistance reversers in H69AR cells – cell-based, doxorubicin co-treatment, pilot screen (AID 601)
Condition Context: H69AR cells + 2 uM doxorubicin, CellTiter-Glo, 72 h; measured here: viability with 2 uM doxorubicin; at 10 µM; stronger effect = lower value
Measured Attribute: viability (%)
Answer in %, number only, no unit symbol.

Previously resolved entries follow.
COc1ccc(NC(=O)C2Cc3ccccc3C(=O)O2)cc1 (stereo unspecified); 85.9
CCC(C)OC(=O)C1=C(C)NC2=C(C(=O)C(C(=O)OC)C(C)C2)C1c1ccc(N(C)C)cc1 (stereo unspecified); 91.5
O=C(Nc1cccnc1)Nc1ccccn1; 87

Reported viability ( CCOc1cccc(OCCCCn2ccnc2)c1 ) = 88.8

// Cc1ccc(-n2c3c(cc(C(=O)NCCCN4CCOCC4)c2=O)C(=O)CC(C)(C)C3)cc1 : viability value = 97.9

Lab note: Cc1nc2c(-c3ccccc3)c(C)nn2c(C)c1CCC(=O)NCc1ccco1 gave viability of 76.6

The molecule identified as COc1cc(NC(=O)C2CCCN2S(=O)(=O)c2cccc3cccnc23)cc(OC)c1OC (stereo unspecified) registered its viability at 88.3

====

Assay: RAM signaling pathway blockade in yeast – S. cerevisiae, Pdr1DBD-CYC8 efflux-inhibited sensitized strain, primary screen (AID 1298);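 note: 0% = DMSO untreated cells without growth and 100% = 10 µM 1-NA-PP1 full growth; higher means more yeast growth rescued from 5-FOA killing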
Condition Context: S. cerevisiae cbk1-as DSE1-URA3 strain, 5-FOA growth OD615, 2 d; at 50 µM; stronger effect = higher value
Calls of active or inactive are those of the source.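 The calls were made as follows: active = RAM network inhibition above 8.4% in each of two replicates, 3 SD over the compound average; inconclusive = above 8.4% inhibition in only one replicate; inactive = 8.4% inhibition or less in each replicate.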
Measured Attribute: RAM network inhibition

Example entries and their recorded answers appear below.
COc1ccc(-c2nc(CS(=O)CC(=O)NCc3ccc(Cl)cc3)c(C)o2)cc1 (stereo not drawn); 7.34% (inactive)
Cc1cc(C)c2c(=O)n(CC(=O)NCCCN3CCN(c4ccccc4F)CC3)sc2n1; 5% (inactive)
Cn1c(=O)oc2cc(S(=O)(=O)N3CCN(c4ccccn4)CC3)ccc21; 5.16% (inactive)
CN(C(=O)c1ccc2c(c1)OCO2)C1(C(=O)NC2CCCCC2)CCCCC1; 0.21% (inactive)
CCCN(CCC)CCNC(=O)c1cc2c(=O)n(C)c3ccccc3c2n1C; 0.57% (inactive)
CCCCCOC(=O)CSc1nc2c(c(=O)[nH]c(=O)n2C)n1Cc1ccc(Cl)cc1; 2.16% (inactive)
CCN(CC)C(=O)Cn1ncc2c1-c1ccccc1OC2; -2.31% (inactive)
O=C(Nc1ccc(-c2nc3cccnc3s2)cc1)c1ccco1; -1.95% (inactive)

Now for the compound whose RAM network inhibition we want.
The recorded RAM network inhibition for CCC(C(=O)N1CCN(c2cccc(Cl)c2)CC1)c1ccccc1 (stereo not drawn) is 8.74% (inactive)

====

Quick reference: viability of the listed items.
Assay: viability of PTEN-null HCT116 cells – cell-based, HCT116 clonal line, CellTiter-Glo, pilot screen (AID 824);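 note: 0% = 20 µM Hyamine control and 100% = vehicle cell control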
Condition Context: HCT116 PTEN-deleted viability, 60 h, at 10 µM, stronger effect = lower value
Inconclusive results are not listed.
Report the value in % with no unit label.

Example results:
CCOC(=O)N1CCC(NC(=O)c2cc(C(=O)NC3CCCC3)ccc2CO)CC1; 90.2
CCOC(=O)N1CCN(Cc2nc3c(c(=O)n(C)c(=O)n3C)n2Cc2ccccc2)CC1; 98
CCOC(=O)c1c(C)[nH]c(C(=O)COc2ccc3c(c2)OCO3)c1C; 87.5
CCOC(=O)CNc1nc(C(C)(C)C)nc2c1nnn2Cc1ccccc1Cl; 76.2
CCOc1cc(CN2CCN(c3cccc(C(F)(F)F)c3)CC2)ccc1O; 82.9

Entry under test: Cc1ccc(CN2CCN(CC(=O)N3CCC(C(N)=O)CC3)C2=O)cc1 . Its viability was 101

According to the records, this molecule CCOc1cccc(NC(=O)Cc2cccs2)c1 displays viability of 84.6

====

Assay: viability of HCT116 without oncogenic beta-catenin – human colon tumor cells, pilot screen (AID 823);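 note: 0% = wells killed by 20 µM Hyamine and 100% = untreated DMSO cell wells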
Condition Context: HCT116 beta-catenin knockout viability, CellTiter-Glo, 60 h; at 10 µM; stronger effect = lower value
Inconclusive results are not listed.
Rule for this label: MET means viability is less than 90%; NOT MET means viability is at least 90%.

Record excerpt, results attached:
COc1ccc2c(c1)CCc1cc(C(=O)N3CCN(c4ccc(N5CCOCC5)nn4)CC3)sc1-2; MET
COc1ccc(CNc2nc3c(c(=O)[nH]c(=O)n3C)n2Cc2ccccc2C)cc1; NOT MET
O=C(NC1CC1)c1ccc(CSCc2cccc(F)c2)o1; MET

Exercise: In plain terms, does O=C(O)c1cccc(-n2cnnn2)c1 come in under 90% for viability?
Key: NOT MET

Exercise: Decide: viability of CSc1nc2c(c(=O)n1C)SC(C)C2 (stereo unspecified) strictly below 90%?
Key: NOT MET

====

Overview of reported viability across a group of compounds:
Assay: viability of HCT116 without oncogenic beta-catenin – human colon tumor cells, pilot screen (AID 823);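 note: 0% = wells killed by 20 µM Hyamine and 100% = untreated DMSO cell wells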
Condition Context: HCT116 beta-catenin knockout viability, CellTiter-Glo, 60 h; at 10 µM; stronger effect = lower value
Results filed as inconclusive are left out.
# value in %; strip the unit string

CC1CCc2nn(CC(=O)NCCN3CCOCC3)cc2C1 (configuration not stated); 108
CC1=C(C(N)=O)C(c2ccccn2)n2nc(SCc3ccccc3)nc2N1 (configuration not stated); 102
CC(=O)n1cc(-c2ccncc2)c2ccccc21; 86.7

Notebook: COc1cccc(C(=O)OCn2nnc3ccccc3c2=O)c1OC , viability read as 96.5

The compound identified as O=c1nc2n(c3sc4c(c13)CCC4)Cc1ccccc1-2 registered its viability at 94.2

Recorded result, COc1ccc(/C=N/O)cc1COc1ccc(NC(C)=O)cc1 , viability: 90.9

# viability (compound: CCOc1ccccc1N1Cc2cc(C)c(C)cc2C1 ) is 63.6

# viability (compound: CN(CCCNC(=O)C1CCC(=O)N1Cc1ccc(F)cc1)c1ccccc1 (configuration not stated) ) is 95.5

# viability (compound: COc1ccc(N2CCN(S(=O)(=O)c3ccc(OC)cc3)CC2)cc1 ) is 99.3

# viability (compound: COc1ccc(C(=O)Nc2nncs2)c(OC)c1 ) is 102

Field viability (entry COC(=O)C1(C#N)C(c2ccccc2)C1(C(=O)OC)C(=O)OC (configuration not stated) ) reads 77.4

The measured viability associated with O=C(O)c1ccc2c(c1)C(=O)N(c1ccc(Cl)cn1)C2=O reads 102

====

Assay: RAM signaling pathway blockade in yeast – S. cerevisiae, Pdr1DBD-CYC8 efflux-inhibited sensitized strain, primary screen (AID 1298);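 note: 0% = DMSO untreated cells without growth and 100% = 10 µM 1-NA-PP1 full growth; higher means more yeast growth rescued from 5-FOA killing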
Condition Context: S. cerevisiae cbk1-as DSE1-URA3 strain, 5-FOA growth OD615, 2 d; at 50 µM; stronger effect = higher value
Measured Attribute: RAM network inhibition (%)
Write the value in % as a bare number.

Examples with answers:
Cc1nn(-c2ccccc2)c(Cl)c1C(=O)Nc1c(C)n(C)n(-c2ccccc2)c1=O; 3.15
O=C(CN1CCN(Cc2ccc(F)cc2Cl)C1=O)NCCCN1CCOCC1; 1.91
Cc1occc1C(=O)NCc1cccs1; -0.16

For this molecule ( O=C(COC(=O)C1(c2ccccc2F)CCCC1)NC1CCS(=O)(=O)C1 (stereo unspecified) ), measured RAM network inhibition is 3.94

What the record says about O/N=C1/CCc2cccc3cccc1c23 : RAM network inhibition is -0.11

Measured RAM network inhibition, Cc1cc(OC2CCCCC2)nc(-c2ccccc2O)n1 : 12.3
